System: SN12C renal
Assay: NCI-60 one-dose screen, 48 h
Conditions: 10 µM unless noted
Method: Growth inhibition of the SN12C human tumor cell line is measured as a screen for anti-cancer activity. Cells are grown in 96 well plates and exposed to the test compound for 48 hours. Compounds are tested at a single concentration, which is 10^-5 M for most compounds. The reported endpoint is percent growth (GI% or GIPRCNT), where numbers from 0 - 100% represent growth inhibition, and numbers from -100% - 0 represent cell death. For example, a value of 40 represents 60% growth inhibition. […]
The panel holds about 83,000 compounds, 20% with a hit somewhere; the sample as a whole holds those more often. The source made the active and inactive calls. How the source made its calls: active means growth percent below 10; inactive means the rest.
Outcome field: choose from true = active, false = inactive

Lookup: Please state the recorded outcome for this molecule: O=C(O)C(Cc1ccccc1)N1C(=O)/C(=C/C(Cl)=C/c2ccc([N+](=O)[O-])cc2)SC1=S (stereo not given)
Found: true

Lookup: Please state the recorded outcome for this molecule: Nc1c(C(=O)Nc2cccc(C(F)(F)F)c2)sc2nc3c(cc12)CCCCCC3
Found: true

Lookup: Please state the recorded outcome for this molecule: CCC(C)NCC(=O)O (stereo not given)
Found: false

Lookup: Please state the recorded outcome for this molecule: C/C1=C\CCC2(C)OC2CC2CCC(C)(O)C(CC1)C2(C)C (stereo not given)
Found: false

Lookup: Please state the recorded outcome for this molecule: O=c1oc2cc(OS(=O)(=O)c3ccccc3)c(Cl)cc2c2c1CCCCCC2
Found: false

Lookup: Please state the recorded outcome for this molecule: COc1cc(NC(=O)CSc2nc3ccc(C)cc3c(=O)n2-c2ccccc2)cc(OC)c1OC
Found: false

Lookup: Please state the recorded outcome for this molecule: COc1cccc(C2CC(=O)Nc3c2c(C)nn3-c2nc3ccccc3[nH]2)c1OC (stereo not given)
Found: false

Lookup: Please state the recorded outcome for this molecule: O=C(O)Cc1ccc2c(c1)Cc1cccnc1O2
Found: false

Lookup: Please state the recorded outcome for this molecule: CS(=O)(=O)N(c1cc(-c2ccc3ncnc(Nc4cccc(Cl)c4)c3c2)cnc1Cl)S(C)(=O)=O
Found: false

Lookup: Please state the recorded outcome for this molecule: CN1CCN(c2ccc3cc(-c4nc5ccccc5[nH]4)c(=O)oc3c2)CC1
Found: false

Lookup: Please state the recorded outcome for this molecule: Cc1nc2scc(-c3ccccc3)n2c(=O)c1CCO
Found: false

Lookup: Please state the recorded outcome for this molecule: O=C1Nc2ccc(Br)cc2C1=N/C=c1\[nH]c(=O)/c(=C/c2ccc(Cl)cc2)s1
Found: false

Lookup: Please state the recorded outcome for this molecule: OC1CC2c3ccccc3C1c1ccccc12 (stereo not given)
Found: false

Lookup: Please state the recorded outcome for this molecule: CC(C)[C@H](CO)Nc1nc(Nc2ccc(C(=O)NCCNS(=O)(=O)c3cccc4c(N(C)C)cccc34)c(Cl)c2)c2ncn(C(C)C)c2n1
Found: false

Lookup: Please state the recorded outcome for this molecule: COc1ccccc1OCC(=O)Nc1sc2c(c1C(N)=O)CCC2
Found: false
